Binding Signal with 300 sec Association (nm) overview
# study target: recombinant human GREM1 (hGREM1-His; C-terminal 10His tagged, R&D, #5190-GR) (human) (UniProt O60565)
# Sequence (O60565 other isoform, or with tags, fused parts or gaps limits assumed, form in doubt): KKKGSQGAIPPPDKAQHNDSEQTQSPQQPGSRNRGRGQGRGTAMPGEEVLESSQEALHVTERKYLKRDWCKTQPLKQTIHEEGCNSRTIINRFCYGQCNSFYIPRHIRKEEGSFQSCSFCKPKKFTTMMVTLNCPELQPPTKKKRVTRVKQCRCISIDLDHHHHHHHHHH
# measurement notes: BLI Octet, captured mAb, 100 nM GREM1 + 5 uM heparin
// return numeric value only (unit: nm, not printed)

binder="H4H2783N2 (antibody, human IgG4, V domains shown) VH: EVQLLESGGGLVQPGGSLRLSCAASGFTFSSYVMNWVRQAPGKGLEWVSAISGSGGSTYYADSVKGRSTISRDNSKNTLYLQMNSLRAEDTAIYYCAKGDIAAIVFDAFDIWGQGTVVTVSS VL: DIQMTQSPSSLSASVGDRVTITCQASQDISSALNWYQHKPGKAPKLLIYDASYLETGVPSRFSGSGSGTDFTFTISSLQPEDIATYYCQQYDNLPYTFGQGTKLEIK" reported_measurement=0.29

Lookup result for H4H2926N (antibody, human IgG4, V domains shown) VH: EVQLVESGGGLVQTGRSLRLSCAASGFTFDDYAMNWVRQAPGKGLEWVSGISWNSGNIGYADSVKGRFTISRDNAKNSLYLQMNSLRAEDTALYYCVKYIGQQLVQDYFDYWGQGTLVTVSS VL: DIQMTQSPSSLSASVGDRVTITCQASQDITNYLNWYQQRPGKAPKLLIYDAFNLERGVPSRFSGSGYGTYFTFTISSLQPEDIAIYYCQQYDNLPLTFGGGTKVEIE ; measured Binding Signal with 300 sec Association (nm): 0.42
